System: up to 32 different microorganisms
METHOD_NOTES: in vitro antibacterial activity (MIC), agar dilution on Brain Heart Infusion (BHI) agar with Steers replicator
Type: cell-based
RUN_PARAMETERS: Staphylococcus aureus ATCC 6538P (code AA); unit assumed
OBSERVATION_TYPE: log10(MIC) (log10 of the value in µg/mL)
Annotation: log10 of MIC, µg/mL basis.

Consider the reported log10(MIC) for these compounds:
* CC[C@H]1OC(=O)[C@H](C)C(=O)[C@H](C)[C@@H](O[C@@H]2O[C@H](C)C[C@H](N(C)C)[C@H]2O)[C@@](C)(OCCN)C[C@@H](C)C(=O)[C@H](C)[C@@H](O)[C@]1(C)O | 1.40
* C=CCOC1(C)CC(C)C(=O)C(C)C(O)C(C)(O)C(CC)OC(=O)C(C)C(=O)C(C)C1OC1OC(C)CC(N(C)C)C1O (stereo not shown) | 1.10
* CCC1OC(=O)C(C)C(=O)C(C)C(OC2OC(C)CC(N(C)C)C2O)C(C)(OCC=Cc2cnc3ccc([N+](=O)[O-])cc3c2)CC(C)C(=O)C(C)C2NC(=O)OC12C (stereo not shown) | -1.30
* C=CCOC1(C)CC(C)C(=O)C(C)C2N(CC=C)C(=O)OC2(C)C(CC)OC(=O)C(C)C(=O)C(C)C1OC1OC(C)CC(N(C)C)C1O (stereo not shown) | 1.40
* CCC1OC(=O)C(C)C(=O)C(C)C(OC2OC(C)CC(N(C)C)C2O)C(C)(OCC=Cc2ccc3nc(C)ccc3c2)CC(C)C(=O)C(C)C2NC(=O)OC12C (stereo not shown) | -1.00

Please give the measured log10(MIC) for this compound: CC[C@H]1OC(=O)[C@H](C)C(=O)[C@H](C)[C@@H](O[C@@H]2O[C@H](C)C[C@H](N(C)C)[C@H]2O)[C@@](C)(OCC=Cc2ccc(Cl)cc2)C[C@@H](C)C(=O)[C@H](C)[C@@H](O)[C@]1(C)O
0.19

Please give the measured log10(MIC) for this compound: CCC1OC(=O)C(C)C(=O)C(C)C(OC2OC(C)CC(N(C)C)C2OC(C)=O)C(C)(OCC=Cc2cnc3ccccc3c2)CC(C)C(=O)C(C)C2NC(=O)OC12C (stereo not shown)
-1.30

Please give the measured log10(MIC) for this compound: CCC1OC(=O)C(C)C(=O)C(C)C(OC2OC(C)CC(N(C)C)C2O)C(C)(OCC=Cc2ccc3ncccc3c2)CC(C)C(=O)C(C)C2NC(=O)OC12C (stereo not shown)
-1.30

Please give the measured log10(MIC) for this compound: CC[C@H]1OC(=O)[C@H](C)C(=O)[C@H](C)[C@@H](O[C@@H]2O[C@H](C)C[C@H](N(C)C)[C@H]2O)[C@@](C)(OCC=Cc2ccccc2)C[C@@H](C)C(=O)[C@H](C)[C@H]2NC(=O)O[C@@]21C
-1.00

Please give the measured log10(MIC) for this compound: C=CCOC1(C)CC(C)C(=NO)C(C)C(O)C(C)(O)C(CC)OC(=O)C(C)C(=O)C(C)C1OC1OC(C)CC(N(C)C)C1O (stereo not shown)
0.49
